molecular target: hERG potassium channel (Homo sapiens); assay: hERG screening assay (PatchXpress patch clamp, CHO cells); settings: 10 μM test cmpd
Sequence (Q12809 whole entry): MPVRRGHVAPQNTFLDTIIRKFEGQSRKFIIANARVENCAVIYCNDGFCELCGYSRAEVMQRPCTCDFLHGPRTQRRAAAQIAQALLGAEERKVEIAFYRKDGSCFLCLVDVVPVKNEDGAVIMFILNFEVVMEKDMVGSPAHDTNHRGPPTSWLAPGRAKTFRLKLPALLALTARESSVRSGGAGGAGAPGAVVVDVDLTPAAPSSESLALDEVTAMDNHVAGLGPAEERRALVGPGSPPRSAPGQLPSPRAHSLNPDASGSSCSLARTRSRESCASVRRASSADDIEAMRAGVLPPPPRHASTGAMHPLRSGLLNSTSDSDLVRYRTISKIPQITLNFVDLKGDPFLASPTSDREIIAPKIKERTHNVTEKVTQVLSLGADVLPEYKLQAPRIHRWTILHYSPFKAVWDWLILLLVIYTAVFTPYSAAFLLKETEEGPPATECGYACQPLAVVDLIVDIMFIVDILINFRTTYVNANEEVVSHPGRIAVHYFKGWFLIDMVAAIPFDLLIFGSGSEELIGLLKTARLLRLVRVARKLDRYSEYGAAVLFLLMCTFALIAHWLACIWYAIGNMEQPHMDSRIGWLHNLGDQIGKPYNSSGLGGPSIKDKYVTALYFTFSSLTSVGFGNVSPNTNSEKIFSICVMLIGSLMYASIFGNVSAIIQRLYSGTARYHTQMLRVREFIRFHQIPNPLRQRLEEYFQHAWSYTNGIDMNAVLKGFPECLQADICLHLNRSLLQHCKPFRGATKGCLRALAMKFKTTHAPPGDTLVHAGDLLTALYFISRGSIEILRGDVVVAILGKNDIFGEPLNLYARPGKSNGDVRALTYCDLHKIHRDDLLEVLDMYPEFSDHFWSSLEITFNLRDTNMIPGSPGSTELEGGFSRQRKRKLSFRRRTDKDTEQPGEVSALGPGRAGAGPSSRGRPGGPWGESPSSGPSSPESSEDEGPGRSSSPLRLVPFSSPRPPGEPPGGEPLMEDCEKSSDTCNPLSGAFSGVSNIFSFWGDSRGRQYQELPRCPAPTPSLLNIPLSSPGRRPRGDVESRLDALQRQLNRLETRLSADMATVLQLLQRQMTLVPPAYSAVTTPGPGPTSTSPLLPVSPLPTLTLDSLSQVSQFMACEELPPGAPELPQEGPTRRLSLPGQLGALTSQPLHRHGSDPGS
Recorded Metric: hERG Patch Clamp hERG % blk (10 μM test cmpd) (%)
Write the number in % without appending the unit.

Before answering, review these 5 worked examples.
CCOC(=O)C1=C(C)Nc2nnnn2C1c1cc2ccccc2o1 (centres unmarked) ... 26
CC1=C(C(=O)OCc2ccccc2)C(c2ccc3ccccc3c2)c2c(C)n[nH]c2N1 (centres unmarked) ... 36
CC1=C(C(=O)OCc2ccccc2)C(c2ccccc2N2CCN(S(C)(=O)=O)CC2)n2nnnc2N1 (centres unmarked) ... 43.5
CC1=C(C(=O)OC(c2ccccc2)C2CC2)C(c2cccc3ccccc23)n2nnnc2N1 (centres unmarked) ... 28
CC1=C(C(=O)OCc2ccccc2)C(c2cc3ccccc3o2)n2nnnc2N1 (centres unmarked) ... 70

Q: I'd like to know its hERG Patch Clamp hERG % blk (10 μM test cmpd). The compound in question is CC1=C(C(=O)N2CCN(c3ccccc3)CC2)C(c2ccc3ccccc3c2)C2=C(CCCC2=O)N1 (centres unmarked)
Ans: 64.5

Q: I'd like to know its hERG Patch Clamp hERG % blk (10 μM test cmpd). The compound in question is CCOC(=O)C1=C(C)Nc2c(c(C)nn2C)C1c1cccc2ccccc12 (centres unmarked)
Ans: 48

Q: I'd like to know its hERG Patch Clamp hERG % blk (10 μM test cmpd). The compound in question is CC1=C(C(=O)NCc2ccccc2)C(c2ccsc2)C2=C(CCCC2=O)N1 (centres unmarked)
Ans: 30

Q: I'd like to know its hERG Patch Clamp hERG % blk (10 μM test cmpd). The compound in question is CC1=C(C(=O)N2CCC(c3ccc(C(=O)O)cc3)CC2)C(c2cccc3ccccc23)C2=C(CCCC2=O)N1 (centres unmarked)
Ans: 37

Q: I'd like to know its hERG Patch Clamp hERG % blk (10 μM test cmpd). The compound in question is COc1ccc2ccccc2c1C1C(C(=O)OCc2ccccc2)=C(C)Nc2nnnn21 (centres unmarked)
Ans: 34.5

Q: I'd like to know its hERG Patch Clamp hERG % blk (10 μM test cmpd). The compound in question is CC1=C(C(=O)OCc2ccccc2)C(c2ccccc2N2CCCCC2)n2nnnc2N1 (centres unmarked)
Ans: 47.5

Q: I'd like to know its hERG Patch Clamp hERG % blk (10 μM test cmpd). The compound in question is CCOC(=O)C1=C(C)Nc2nnnn2C1c1cccc2ccccc12 (centres unmarked)
Ans: 29

Q: I'd like to know its hERG Patch Clamp hERG % blk (10 μM test cmpd). The compound in question is CCOC(=O)C1=C(C)Nc2nnnn2C1c1sc2ccccc2c1C (centres unmarked)
Ans: 36.5

Q: I'd like to know its hERG Patch Clamp hERG % blk (10 μM test cmpd). The compound in question is CCCC1=C(C(=O)OCC)C(c2ccc(C(=O)O)cc2)C2=C(CC(C)(C)CC2=O)N1 (centres unmarked)
Ans: 12

Q: I'd like to know its hERG Patch Clamp hERG % blk (10 μM test cmpd). The compound in question is CC1=C(C(=O)OCc2ccccc2)C(c2cccc3c2OCO3)n2nnnc2N1 (centres unmarked)
Ans: 56

Q: I'd like to know its hERG Patch Clamp hERG % blk (10 μM test cmpd). The compound in question is CC1=C(C(=O)OCc2ccccc2)C(c2ccccc2N2CCN(C)CC2)n2nnnc2N1 (centres unmarked)
Ans: 93.5

Q: I'd like to know its hERG Patch Clamp hERG % blk (10 μM test cmpd). The compound in question is COc1ccc(COC(=O)C2=C(C)Nc3nnnn3C2c2cccc3ccccc23)cc1OC (centres unmarked)
Ans: 46.5

Q: I'd like to know its hERG Patch Clamp hERG % blk (10 μM test cmpd). The compound in question is COC(=O)c1ccc(-c2n[nH]c3c2C(c2cccc4ccccc24)C2=C(COC2=O)N3)cc1 (centres unmarked)
Ans: 44.5

Q: I'd like to know its hERG Patch Clamp hERG % blk (10 μM test cmpd). The compound in question is CC1=C(C(=O)OCc2ccccc2)C(c2c3ccccc3cc3ccccc23)n2nnnc2N1 (centres unmarked)
Ans: 27.5
